Conditions: 338.15 K; 101.33 kPa; Liquid; Concentric cylinders viscometry
± gives the expanded uncertainty stated by the source.
ATTRIBUTE MEASURED: viscosity

COMPOUND	ASSAY VALUE
CCCCCCOS(=O)(=O)[O-].CC[n+]1ccn(C)c1 [3-ethyl-1-methyl-1H-imidazolium hexyl sulfate]	47.52 ± 1.1 mPa·s
CCCCn1cc[n+](C)c1C.O=S(=O)([N-]S(=O)(=O)C(F)(F)F)C(F)(F)F	21.03 ± 0.49 mPa·s
CCCCCCCCCCCCCC[P+](CCCCCC)(CCCCCC)CCCCCC.FC(F)(F)C(F)(F)[P-](F)(F)(F)(C(F)(F)C(F)(F)F)C(F)(F)C(F)(F)F	52.39 ± 1.2 mPa·s
CCCC[N+]1(C)CCCC1.O=S(=O)([N-]S(=O)(=O)C(F)(F)F)C(F)(F)F	18.77 ± 0.44 mPa·s
